Entries and their ELISA (Absorption-Pass/Fail Control)
# tested-system: HLA-B*3501
Write the number in absorption without appending the unit.

Please review the following examples before continuing.
[[record]]
binder = "HANNSTEQV (modifications not checked) [… (SEQ ID NO: 17)]"
test_readout = "ELISA (Absorption-Pass/Fail Control)"
observed_measurement = 0.43

[[record]]
binder = "LGNPMCDEF (modifications not checked) [… (SEQ ID NO: 43)]"
test_readout = "ELISA (Absorption-Pass/Fail Control)"
observed_measurement = 0.35

[[record]]
binder = "LVKSDQICI (modifications not checked) [… (SEQ ID NO: 29)]"
test_readout = "ELISA (Absorption-Pass/Fail Control)"
observed_measurement = 0.04

[[record]]
binder = "FINVPEWSY (modifications not checked) [… (SEQ ID NO: 10)]"
test_readout = "ELISA (Absorption-Pass/Fail Control)"
observed_measurement = 0.57

[[record]]
binder = "AGWLLGNPM (modifications not checked) [… (SEQ ID NO: 42)]"
test_readout = "ELISA (Absorption-Pass/Fail Control)"
observed_measurement = -0.06

[[record]]
binder = "LFAIVSLVK (modifications not checked) [… (SEQ ID NO: 40)]"
test_readout = "ELISA (Absorption-Pass/Fail Control)"
observed_measurement = 0.1


Hello, please tell me recorded ELISA (Absorption-Pass/Fail Control) for this one: SLVKSDQIC (modifications not checked) [… (SEQ ID NO: 16)] -0.03

Value source: patent US20070197446A1
